# ASSAY_TARGET: T1, human HER1 Extracellular Domain (HER1 ECD) (human, UniProt P00533 25-645)
# T1 construct: also called EGFR ECD
# ASSAY_OVERVIEW: ELISA, antigen coated, hybridoma supernatant

BINDER | binding result
anti-HER3 antibody M-17-12 (antibody, V domains shown, mouse hybridoma clone; VH and VL stated identical to those of M-17-02) VH: EVQLQQSGTVLARPGASVKMSCKASGYSFTSYWIHWVKQRPGQGLEWIGAIYPGNSDTTYNQKFKGKAKLTAVTSASTAYMELSSLTNEDSAVYYCARTGVWTSYYFDYWGQGTTLTVSS VL: DIQMTQSPASLSASVGETVTITCRASENIYSNLAWYQQKQGKSPQLLVYAATNLADGVPSRFSGSGSGTQFSLRINSLQPEDFGSYYCQHFYGTPFTFGTGTKLEIK | no binding
anti-HER3 antibody M-17-02 (antibody, V domains shown, mouse hybridoma clone) VH: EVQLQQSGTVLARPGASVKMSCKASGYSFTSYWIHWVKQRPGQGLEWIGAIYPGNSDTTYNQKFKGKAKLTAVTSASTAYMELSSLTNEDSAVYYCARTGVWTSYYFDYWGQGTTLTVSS VL: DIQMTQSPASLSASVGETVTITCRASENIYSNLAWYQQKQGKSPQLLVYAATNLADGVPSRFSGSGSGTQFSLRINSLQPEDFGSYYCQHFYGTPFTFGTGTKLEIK | no binding

Value source: patent US20180094062A1
